- assay.info: Equilibrium solubility of topiramate in de-ionized water and in aqueous surfactant solutions
- Type: physicochemical
- test.settings: 37 °C, thermodynamic from solid; de-ionized water; no temperature printed at the place; read-out: Solubility of neat topiramate in de-ionized water
property.label: solubility

Consider the compound CC1(C)O[C@@H]2[C@@H](CO[C@@]3(COS(N)(=O)=O)OC(C)(C)O[C@@H]23)O1 [topiramate] and give its recorded solubility.
~12 mg/mL
